// provenance: patent US6858591B2

- Tested on: S. aureus GC 1131
- testName: In vitro MIC, broth dilution
- Type: cell-based
- experimentalParameters: Staphylococcus aureus, GC1131; S. aureus GC 1131; read-out: MIC
Attribute: MIC

Previously resolved entries follow.
compound	MIC
COc1ccc(Cn2c(=O)ccn([C@@H]3OC([C@H](O)[C@H](NCCCNC(=O)[C@@H](NC(=O)OCc4ccccc4)C(C)O)C(=O)O)[C@@H](O)C3O[Si](C)(C)C(C)(C)C)c2=O)cc1 (stereo in doubt) [Example 46]	> 128 µg/mL
COc1ccc(Cn2c(=O)ccn([C@@H]3OC([C@H](O)[C@H](NCCCNC(=O)[C@H](CC(C)C)NC(=O)OCc4ccccc4)C(=O)O)[C@@H](O)[C@H]3O)c2=O)cc1 (stereo partly shown) [Example 52]	> 128 µg/mL
COc1ccc(Cn2c(=O)ccn([C@@H]3OC([C@H](O)[C@H](NCCCNC(=O)[C@@H](N)CCCCN)C(=O)OC(C)(C)C)[C@@H](O[Si](C)(C)C(C)(C)C)[C@H]3O[Si](C)(C)C(C)(C)C)c2=O)cc1 (stereo partly shown) [Example 19]	4 µg/mL

Query compound follows.
q: Can you look up the measured MIC of CCOC(=O)C(NCCCNC(=O)[C@@H](NC(=O)[C@H](CCCNC(=N)N)NC(=O)N[C@H](C(=O)O)C(C)C)[C@@H](O)C(C)C)[C@@H](O)[C@H]1O[C@@H](n2ccc(=O)[nH]c2=O)[C@H](OC(C)=O)[C@@H]1OC(C)=O (stereo partly shown) [Example 43] for me?
a: > 128 µg/mL

====

- Tested on: E. cloacae GC 3783
- testName: In vitro MIC, broth dilution
- Format: cell-based
- experimentalParameters: Enterobacter cloacae, GC3783
Attribute: MIC

Previously resolved entries follow.
molecule	studyTarget	endpointLabel	recordedResult
COc1ccc(Cn2c(=O)ccn([C@@H]3OC([C@H](O)[C@H](NCCCNC(=O)CCCCCCCCCCNC(=O)OCC4c5ccccc5-c5ccccc54)C(=O)OC(C)(C)C)[C@@H](O[Si](C)(C)C(C)(C)C)[C@H]3O[Si](C)(C)C(C)(C)C)c2=O)cc1 (stereo partly shown) [Example 24]	E. cloacae GC 3783	MIC	> 128 µg/mL
COc1ccc(Cn2c(=O)ccn([C@@H]3OC([C@H](O)[C@H](NCCCNC(=O)[C@@H](NC(=O)[C@H](CCCNC(=N)N[N+](=O)O)NC(=O)N[C@H](C(=O)OCc4ccccc4)C(C)C)[C@@H](O)C(C)C)C(=O)OC(C)(C)C)[C@@H](O[Si](C)(C)C(C)(C)C)[C@H]3O[Si](C)(C)C(C)(C)C)c2=O)cc1 (stereo partly shown) [Example 26]	E. cloacae GC 3783	MIC	> 128 µg/mL
COc1ccc(Cn2c(=O)ccn([C@@H]3OC([C@H](O)[C@H](NCCCNC(=O)[C@H](Cc4ccccc4)NC(=O)OCc4ccccc4)C(=O)OC(C)(C)C)[C@@H](O[Si](C)(C)C(C)(C)C)[C@H]3O[Si](C)(C)C(C)(C)C)c2=O)cc1 (stereo partly shown) [Example 12]	E. cloacae GC 3783	MIC	128 µg/mL

Query molecule follows.
q: Can you look up the measured MIC of COc1ccc(Cn2c(=O)ccn([C@@H]3OC([C@H](O)[C@H](NC(=O)CCCCCCCCCCNC(=O)OCC4c5ccccc5-c5ccccc54)C(=O)OC(C)(C)C)[C@@H](O[Si](C)(C)C(C)(C)C)[C@H]3O[Si](C)(C)C(C)(C)C)c2=O)cc1 (stereo partly shown) [Example 22] for me?
a: > 128 µg/mL
